System: OVCAR-8
Method notes: NCI tumour cell line growth inhibition, 48 h
The source made the active and inactive calls. Cut-off read from the data, not from the text of the source: active = GI50 up to about 1.1 µM and inactive = higher.
Outcome (select one): active, inactive

{"Compound": "Cc1nc2ccc(Cl)cc2c2c1CCN2c1ccc(F)cc1", "Label": "inactive"}
{"Compound": "O=C1C=CC(=O)c2c1ccc1c3ccccc3n(-c3ccccc3)c21", "Label": "inactive"}
{"Compound": "CC(=O)OCCOCn1c2c(c(=S)[nH]c1=O)CCC2", "Label": "inactive"}

[Q] Per the records of this test, what outcome belongs to CC(=O)O[C@H]1C(=O)[C@@]2(C)C(C(OC(=O)c3ccccc3)[C@]3(O)C[C@H](OC(=O)C(OC(=O)CCCC(=O)NCCCN(C)C)C(NC(=O)c4ccccc4)c4ccccc4)C(C)=C1C3(C)C)C1(OC(C)=O)COC1C[C@@H]2O (stereo not given in full) ?
[A] active

[Q] Recorded test outcome, item `FC(F)(F)C1(Cl)C(c2ccccc2)=C1c1ccccc1`
[A] inactive

[Q] Any idea what this test logged for O=c1c(Br)c(-c2ccccc2)[s+]([O-])c2ccccc12 (stereo not given) ?
[A] inactive

[Q] Query: recorded result category for `Sc1nnc(COc2ccc(Cl)cc2)o1` in this test
[A] inactive

[Q] Could you kindly confirm the outcome this assay logged for `CC/C(=C\c1ccc(OC)cc1)c1ccc(OC)cc1` ?
[A] inactive

[Q] Call for entry CN(C)CC(O)c1ccc(Cl)c2ccccc12 (stereo not given) :
[A] inactive

[Q] Could you check what this test reported for Cc1ccc2c(c1C)C(=O)C1(Cc3cc4c(cc3C1=O)CCC4)C2 (stereo not given) ?
[A] inactive
